biological target: catalytic domain of human PARP14 (Homo sapiens (Human)); test: Enzymatic assay for inhibition of PARP14 (DELFIA, auto-modification with biotin-NAD); details: auto-modification of PARP14 by biotin-NAD, 50 nM PARP14, 3 μM biotin-NAD
Sequence (Q460N5 1611-1801): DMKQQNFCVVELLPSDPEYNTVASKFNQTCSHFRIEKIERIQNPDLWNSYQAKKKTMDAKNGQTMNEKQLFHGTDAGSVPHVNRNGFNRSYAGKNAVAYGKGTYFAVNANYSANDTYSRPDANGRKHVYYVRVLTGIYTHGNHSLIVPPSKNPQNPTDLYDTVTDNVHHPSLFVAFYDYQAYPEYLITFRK
Where a name gives a salt, the structure may show the parent alone.
measurement.type: IC50

[[record]]
molecule = "O=c1[nH]c(CS[C@H]2CC[C@H](O)CC2)nc2cc(NC3CCC3)ccc12 [Example 194]"
measurement_type = "IC50"
meas_value = "< 1000 nM"

[[record]]
molecule = "O=c1[nH]c(CSC2CCN(C3COC3)CC2)nc2cc(NCC3CC3)cc(F)c12 [Example 274]"
measurement_type = "IC50"
meas_value = "< 1000 nM"

[[record]]
molecule = "CC(=O)N[C@H]1CC[C@H](SCc2nc3cc(OCC4CCOCC4)cc(F)c3c(=O)[nH]2)CC1 [Example 426]"
measurement_type = "IC50"
meas_value = "< 1000 nM"

[[record]]
molecule = "COc1ccccc1Nc1ccc2c(=O)[nH]c(CSC3CCOCC3)nc2c1 [Example 84]"
measurement_type = "IC50"
meas_value = "1000 to 10000 nM"

[[record]]
molecule = "Cc1ccc2nc(CSC3CCOCC3)[nH]c(=O)c2c1 [Example 3]"
measurement_type = "IC50"
meas_value = "1000 to 10000 nM"

[[record]]
molecule = "CN1CC[C@H](CNc2cc3nc(CSC4CCOCC4)[nH]c(=O)c3c(F)c2F)[C@H](F)C1 (relative stereo) [Example 408]"
measurement_type = "IC50"
meas_value = "1000 to 10000 nM"

[[record]]
molecule = "CC(=O)N1CCC(CNc2cc3nc(CSC4CCOCC4)[nH]c(=O)c3c(F)c2F)CC1 [Example 369]"
measurement_type = "IC50"
meas_value = "< 1000 nM"

[[record]]
molecule = "N#C[C@H]1CC[C@H](Nc2cc3nc(CSC4CCOCC4)[nH]c(=O)c3c(F)c2F)CC1 [Example 360]"
measurement_type = "IC50"
meas_value = "< 1000 nM"

[[record]]
molecule = "O=c1[nH]c(CSC2CCOCC2)nc2cc(NC3CCCC3)ccc12 [Example 115]"
measurement_type = "IC50"
meas_value = "< 1000 nM"

[[record]]
molecule = "Cc1ccc(F)c2c(=O)[nH]c(CS[C@H]3CC[C@H](O)CC3)nc12 [Example 57]"
measurement_type = "IC50"
meas_value = "< 1000 nM"

[[record]]
molecule = "Cc1cccc2c(=O)[nH]c(CS[C@@H]3CCC[C@H](CN(C)C)C3)nc12 (relative stereo) [Example 72, Trifluoroacetate]"
measurement_type = "IC50"
meas_value = "> 10000 nM"

[[record]]
molecule = "Cc1cccc2c(=O)[nH]c(CSC3CCOCC3)nc12 [Example 2]"
measurement_type = "IC50"
meas_value = "< 1000 nM"

[[record]]
molecule = "CO[C@H]1CC[C@@H](SCc2nc3c(C)cccc3c(=O)[nH]2)CC1 [Example 27]"
measurement_type = "IC50"
meas_value = "1000 to 10000 nM"

[[record]]
molecule = "O=c1[nH]c(CS[C@H]2CC[C@@H](CO)CC2)nc2cc(Nc3cccnc3)ccc12 [Example 106]"
measurement_type = "IC50"
meas_value = "1000 to 10000 nM"

[[record]]
molecule = "O=c1[nH]c(CSC2CCOCC2)nc2cc(NCc3ccncc3)ccc12 [Example 117]"
measurement_type = "IC50"
meas_value = "1000 to 10000 nM"

[[record]]
molecule = "Cc1cccc2c(=O)[nH]c(CSC3COC3)nc12 [Example 39]"
measurement_type = "IC50"
meas_value = "> 10000 nM"

[[record]]
molecule = "O=c1[nH]c(CSC2CCOCC2)nc2cc(Oc3ccccc3)ccc12 [Example 29]"
measurement_type = "IC50"
meas_value = "1000 to 10000 nM"

[[record]]
molecule = "O=c1[nH]c(CS[C@H]2CC[C@H](O)CC2)nc2cc(OCC3CC3)cc(F)c12 [Example 235]"
measurement_type = "IC50"
meas_value = "< 1000 nM"

[[record]]
molecule = "O=c1[nH]c(CS[C@H]2CC[C@H](O)CC2)nc2cc(OCC3CCCOC3)cc(F)c12 (stereo partly drawn) [Example 318]"
measurement_type = "IC50"
meas_value = "< 1000 nM"

[[record]]
molecule = "CO[C@H]1CC[C@@H](SCc2nc3cc(OCC4CCOCC4)cc(F)c3c(=O)[nH]2)CC1 [Example 357]"
measurement_type = "IC50"
meas_value = "< 1000 nM"

[[record]]
molecule = "O=c1[nH]c(CSC2CCOCC2)nc2cc(NC3CCNCC3)ccc12 [Example 129]"
measurement_type = "IC50"
meas_value = "1000 to 10000 nM"

[[record]]
molecule = "O=c1[nH]c(CS[C@H]2CCN[C@@H](C(F)(F)F)C2)nc2cc(NC3CCCC3)cc(F)c12 (relative stereo) [Example 228, hydrochloride]"
measurement_type = "IC50"
meas_value = "1000 to 10000 nM"

[[record]]
molecule = "Cc1cc(NCC2CC2(F)F)cc2nc(CSC3CCNCC3)[nH]c(=O)c12 (stereo not drawn) [Example 284, hydrochloride]"
measurement_type = "IC50"
meas_value = "< 1000 nM"

[[record]]
molecule = "Cc1cccc2c(=O)[nH]c(CS[C@H]3CC[C@@H](O)CC3)nc12 [Example 24]"
measurement_type = "IC50"
meas_value = "1000 to 10000 nM"


These measurements were taken from patent US10562891B2.
